Known IC50 of a selection of molecules
Molecular target: G12V-mutant human KRAS (amino acid residues 1-188) (Homo sapiens, UniProt P01116, G12V)
Construct: G12V-mutant human KRAS (amino acid residues 1-188) with FLAG tag was purified from E. coli; made in house; host or cells: E. coli
Test: KRAS Binding Competition Assay (AlphaScreen; biotinylated KRpep-2d analogue), G12V
Conditions: geometric mean, read-out: KRAS GMean IC50 (uM) MUTATION: G12V

Past entries and their recorded results:
CN1CCC(Cc2nc(N3[C@@H]4CC[C@H]3CNC4)c3ccc(-c4cc(O)cc5ccccc45)cc3n2)CC1    10 to 100 µM
CN1CCCC[C@H]1COc1nc(N2C[C@H]3CC[C@@H](C2)N3)c2ccc(-c3cc(O)cc4ccccc34)cc2n1    10 to 100 µM
Oc1cc(-c2ccc3c(N4C[C@H]5CC[C@@H](C4)N5)nc(OCC45CCCCN4CCCC5)nc3c2)c2ccccc2c1    10 to 100 µM
CN1CCC[C@H]1COc1nc(N2[C@@H]3CC[C@H]2CN(C(=O)NC2CN4CCC2CC4)C3)c2ccc(-c3cc(O)cc4ccccc34)cc2n1 (stereo partly shown)    10 to 100 µM

Q. Reported IC50 for O=[N+]([O-])c1ccc(COc2nc(N3C[C@H]4CC[C@@H](C3)N4)c3cc(Cl)c(-c4c(O)cccc4F)c(F)c3n2)cc1 : what is it?
A. 10 to 100 µM

Q. Reported IC50 for CN1CCC[C@H]1COc1nc(N2C[C@H]3CC[C@@H](C2)N3C(=O)CCCn2ccnc2)c2ccc(-c3cc(O)cc4ccccc34)c(F)c2n1 : what is it?
A. 0.0001 to 10 µM

Q. Reported IC50 for CN1CCC[C@H]1COc1nc(N2[C@@H]3CC[C@H]2CN(C(=O)Nc2cnc[nH]2)C3)c2ccc(-c3cc(O)cc4ccccc34)cc2n1 : what is it?
A. 0.0001 to 10 µM

====

Known IC50 of a selection of compounds
Target: G12D-mutant human KRAS (amino acid residues 1-188) (Homo sapiens, UniProt P01116, G12D)
Construct: G12D or G12C-mutant human KRAS (amino acid residues 1-188) with FLAG tag; made in house; host or cells: E. coli
Experiment: KRAS Binding Disruption Assay (AlphaScreen; biotinylated KRpep-2d analogue or RAF1-RBD), G12D
Conditions: KRAS G12D; geometric mean; read-out: KRAS GMean IC50 (uM) MUTATION: G12D

Q. Reported IC50 for CN1CCC[C@H]1COc1nc(N2CC[C@@H]3CC[C@H](C2)N3C(=O)NC2CCOC2)c2ccc(-c3cc(O)cc4ccccc34)c(F)c2n1 (stereo partly shown) [P-0248] : what is it?
A. 10 to 100 µM

Q. Reported IC50 for CN1CCOC[C@H]1COc1nc(N2C[C@H]3CC[C@@H](C2)N3)c2ccc(-c3cc(O)cc4ccccc34)cc2n1 [P-0084] : what is it?
A. 0.0001 to 10 µM

Q. Reported IC50 for Cc1ccc2[nH]ncc2c1-c1c(F)cc2c(N3C[C@H]4CC[C@@H](C3)N4)nc(OCC34CCCN3CCC4)nc2c1F [P-0593] : what is it?
A. 0.0001 to 10 µM

====

Known IC50 of a selection of compounds
Target: G12D-mutant human KRAS (amino acid residues 1-188) (Homo sapiens, UniProt P01116, G12D)
Construct: G12D or G12C-mutant human KRAS (amino acid residues 1-188) with FLAG tag; made in house; host or cells: E. coli
Assay: KRAS Binding Disruption Assay (AlphaScreen; biotinylated KRpep-2d analogue or RAF1-RBD), G12D
Conditions: KRAS G12D; geometric mean; read-out: KRAS GMean IC50 (uM) MUTATION: G12D

CNC(=O)COc1nc(N2C[C@H]3CC[C@@H](C2)N3)c2ccc(-c3cc(O)cc4ccccc34)c(F)c2n1 [P-0733]    0.0001 to 10 µM

Q. I'm curious: which IC50 was measured for CN1CCC[C@H]1COc1nc(N2CC3CCC2CN3C(=O)CC2SC(=O)NC2=O)c2ccc(-c3cc(O)cc4ccccc34)c(F)c2n1 (stereo partly shown) [P-0328] tested on G12D-mutant human KRAS (amino acid residues 1-188) (Homo sapiens, UniProt P01116, G12D)?
A. 0.0001 to 10 µM

Q. I'm curious: which IC50 was measured for Fc1ccc2[nH]cc(-c3ccc4c(N5C[C@H]6CC[C@@H](C5)N6)nc(OCC56CCCN5CCC6)nc4c3F)c2c1F [P-0763] tested on G12D-mutant human KRAS (amino acid residues 1-188) (Homo sapiens, UniProt P01116, G12D)?
A. 0.0001 to 10 µM

Q. I'm curious: which IC50 was measured for CN1CCC[C@H]1COc1nc(N2C[C@H]3CC[C@@H](C2)N3)c2ccc(-c3c[nH]c4cccc(Cl)c34)cc2n1 [P-0255] tested on G12D-mutant human KRAS (amino acid residues 1-188) (Homo sapiens, UniProt P01116, G12D)?
A. 10 to 100 µM

Q. I'm curious: which IC50 was measured for COc1ccc(CNCCc2nc(N3C[C@H]4CC[C@@H](C3)N4)c3ccc(-c4cc(O)cc5ccccc45)c(F)c3n2)cc1 [P-0772] tested on G12D-mutant human KRAS (amino acid residues 1-188) (Homo sapiens, UniProt P01116, G12D)?
A. 0.0001 to 10 µM

Q. I'm curious: which IC50 was measured for O=C(OCc1ccccc1)N1CCC[C@H]1COc1nc(N2C[C@H]3CC[C@@H](C2)N3)c2ccc(-c3cc(O)cc4ccccc34)c(F)c2n1 [P-0677] tested on G12D-mutant human KRAS (amino acid residues 1-188) (Homo sapiens, UniProt P01116, G12D)?
A. 0.0001 to 10 µM

Q. I'm curious: which IC50 was measured for O=C(N[C@H]1CCCNC1)N1[C@@H]2CC[C@H]1CN(c1nc(OCC34CCCN3CCC4)nc3cc(-c4cc(O)cc5ccccc45)ccc13)C2 [P-0142] tested on G12D-mutant human KRAS (amino acid residues 1-188) (Homo sapiens, UniProt P01116, G12D)?
A. 0.0001 to 10 µM
